Cited source: PubChem BioAssay (NCI)

# Test system: LOX IMVI melanoma
# test protocol: NCI-60 one-dose screen, 48 h
# measurement setup: 10 µM unless noted
This is part of a sample that, as a whole, favours compounds with a hit. Of some 83,000 tested, about 20% had one in any assay. Calls of active or inactive are those of the source. The calls were made as follows: active = growth percent below 10; inactive = the rest.
Thanks in advance; please answer with one of these: yes (active), no (inactive)

As a guide, the following entries are already answered.
O=C(NNC(=O)c1ccc(NC(=O)c2ccccn2)cc1)Nc1ccc([N+](=O)[O-])cc1	no
O=[N+]([O-])c1ccc(O)cc1Br	no
C=CCOC(=O)Nc1cccn([C@H](Cc2ccccc2)C(=O)NCCC(C)C)c1=O	no
C=CCn1c(C)nc2ccc(Nc3nc(Nc4ccc5nc(C)n(CC=C)c5c4)c4ccccc4n3)cc21	yes
C=C1C(=O)O[C@H]2[C@H]1CC/C(COC(=O)c1cc3ccccc3s1)=C\CC[C@@]1(C)O[C@@H]21	yes
O=C1Nc2ccc(C(=O)O)cc2/C1=N/c1nnc(Sc2ccccc2)s1	no

What outcome does the record of this test show for COc1ccc2c(c1)N(CCO)C1=C(C(=O)OC1)C2c1cccc(F)c1 (stereo not given) ?
no

Repeat for the following compound: Cc1[nH]c(=O)[nH]c(=O)c1Br
no

Repeat for the following compound: CCNCCNc1cc(-c2ccc(C(F)(F)F)cc2)c(C#N)c2nc3ccccc3n12
yes

Repeat for the following compound: O=C(NCc1ccc(Cl)cc1Cl)C1CCC(=O)N1c1cccs1 (stereo not given)
no

====

# Tested on: UACC-62 melanoma
# test protocol: NCI-60 one-dose screen, 48 h (100 = growth as untreated, 0 = no growth, -100 = all killed)
# measurement setup: 10 µM unless noted
This is part of a sample that, as a whole, favours compounds with a hit. Of some 83,000 tested, about 20% had one in any assay.
// classify: if (growth < 70%) class 1 else class 0

As a guide, the following entries are already answered.
Cn1c(I)c(C#CCO[Si](C)(C)C(C)(C)C)c(=O)[nH]c1=O	class 0
O=C1/C(=C/c2cn(-c3ccccc3)nc2-c2ccccc2)SC(=S)N1C1CCCCC1	class 0
Oc1c(Br)cc(Br)c2ccc(Cn3cc(-c4ccc(C(F)(F)F)cc4)nn3)nc12	class 1
CCOc1ccc(NC(=O)CSc2oc(-c3ccccc3)nc2S(=O)(=O)c2ccc(C)cc2)cc1	class 1

Input CSc1nc2ccccc2cc1/C=C1/C=C(c2ccccc2)NC1=O ; condition: growth strictly below 70%. Does it hold?
class 1

====

# Test system: HOP-92 NSCLC
# test protocol: NCI-60 one-dose screen, 48 h (100 = growth as untreated, 0 = no growth, -100 = all killed)
# measurement setup: 10 µM unless noted
About 83,000 compounds went through this panel and 20% of them were active in at least one assay; those are over-represented in the sample as a whole.
# label = fulfilled if growth >= 70% else not fulfilled

As a guide, the following entries are already answered.
Oc1c(Br)cc(Br)c2ccc(Cn3cc(-c4ccccc4C(F)(F)F)nn3)nc12	fulfilled
O=C(Nn1c2c(sc1=NC1CC1)C(=O)c1ccccc1C2=O)c1cc2ccc1CCc1ccc(cc1)CC2	fulfilled
CCCCCCCCCc1ccc(OCCOCCOCCOCCOCCOCCOCCOCCOCCO)cc1	not fulfilled
COc1ccc(/C=C(\C#N)n2nnc3cc(F)c(F)cc32)cc1	fulfilled
COc1ccc(/C=C/C(=O)c2cccc(OCCCCOc3cccc(C(=O)/C=C/c4ccc(OC)c(OC)c4)c3)c2)cc1OC	not fulfilled

Kindly determine if growth recorded for Cc1cccc(/C=C2\CN(C(=O)OC(C)(C)C)C/C(=C\c3cccc(C)c3)C2=O)c1 is above or exactly 70%.
fulfilled

Repeat for the following molecule: COc1cc(OC)c(/C=C/C(=O)c2c(OC)cccc2OC)c(OC)c1
not fulfilled

Repeat for the following molecule: CCC(=C(c1ccc(OCCN2CCCCC2)cc1)c1ccc(OCCN2CCCCC2)cc1)c1ccc(Cl)cc1
not fulfilled

Repeat for the following molecule: O=C(CSc1nc2sc3c(c2c(=O)n1-c1ccccc1)CCCCC3)N/N=C/c1cccc([N+](=O)[O-])c1
fulfilled
